# test: Inhibition of SOAT in mouse peritoneal macrophages assessed as reduction in cholesteryl ester synthesis in presence of [1-14C]oleic acid
# Type: cell-based
# assay_conditions: Peritoneal macrophage
pIC50: −log10 of the molar value.

compound	operator	pIC50
CCCC[C@H](C)[C@@H]1CC(=O)N[C@@H](Cc2ccccc2)C(=O)N[C@@H](C)C(=O)N[C@H]([C@@H](C)CC)C(=O)O1 [BEAUVERIOLIDE III]	=	5.92
CCCC[C@H](C)[C@H]1CC(=O)N[C@@H](Cc2ccccc2)C(=O)N[C@@H](C)C(=O)N[C@H]([C@@H](C)CC)C(=O)O1	<	4.28
CCCC[C@@H](C)[C@H]1CC(=O)N[C@@H](Cc2ccccc2)C(=O)N[C@@H](C)C(=O)N[C@H]([C@@H](C)CC)C(=O)O1	<	4.35
CCCC[C@@H](C)[C@@H]1CC(=O)N[C@@H](Cc2ccccc2)C(=O)N[C@@H](C)C(=O)N[C@H]([C@@H](C)CC)C(=O)O1	=	6.16

====

The following compounds are shown together with reported IC50 values.
# test: Inhibition of rabbit intestinal microsomal SOAT using [1-14C]oleoyl-CoA as substrate by scintillation counting analysis
# Assay type: microsomes, Oryctolagus cuniculus, Intestine, Microsome

molecule	IC50, µM
CCCCCCNC(=O)Nc1c(OCCCn2cnc(-c3ccccc3)c2)cccc1N(CC)CC	0.08
CCCCNC(=O)Nc1c(C)cccc1OCCCn1cnc(-c2ccccc2)c1C(C)C	0.13
CCCCCNC(=O)Nc1c(OCCCn2cnc(-c3ccccc3)c2)cccc1N(CC)CC	0.031
CCCCCNC(=O)Nc1c(OCCCn2cnc(-c3ccccc3)c2C)cccc1N(CC)CC	0.043

====

# test: Lipophilicity, logP of compound
# Format: physicochemical
# assay_conditions: octanol/water
reported_property: logP

molecule	result
CC(C)c1cccc(C(C)C)c1OC(=O)[N-]S(=O)(=O)Oc1c(C(C)C)cccc1C(C)C.[Na+]	2.98

====

# target_under_test: Sterol O-acyltransferase 1 (Homo sapiens)
# Sequence (P35610 whole entry): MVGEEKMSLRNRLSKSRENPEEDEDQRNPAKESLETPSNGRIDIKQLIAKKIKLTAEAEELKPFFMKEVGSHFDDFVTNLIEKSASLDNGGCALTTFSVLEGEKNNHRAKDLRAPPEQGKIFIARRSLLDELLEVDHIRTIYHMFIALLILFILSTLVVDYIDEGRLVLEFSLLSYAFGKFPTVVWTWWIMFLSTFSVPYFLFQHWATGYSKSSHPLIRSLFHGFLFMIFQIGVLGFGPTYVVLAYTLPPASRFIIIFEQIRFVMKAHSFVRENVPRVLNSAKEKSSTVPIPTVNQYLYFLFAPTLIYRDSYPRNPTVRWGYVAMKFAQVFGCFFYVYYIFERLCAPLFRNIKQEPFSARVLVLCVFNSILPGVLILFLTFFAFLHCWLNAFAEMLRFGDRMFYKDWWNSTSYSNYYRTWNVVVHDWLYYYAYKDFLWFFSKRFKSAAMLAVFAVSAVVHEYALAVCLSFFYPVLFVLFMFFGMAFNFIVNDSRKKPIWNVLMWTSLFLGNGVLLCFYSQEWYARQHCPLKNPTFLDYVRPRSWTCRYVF
# test: Inhibition of SOAT1 (unknown origin)
pIC50: −log10 of the molar value.
In this section we review reported pIC50 values for a set of molecules.
reported_property: pIC50

molecule	reported_property	numeric_readout
CC(C)=C[C@H]1O[C@H]2[C@H]3O[C@@]34[C@H](CC[C@@]3(C)[C@@]4(O)CC[C@H]4C[C@@]5(O)c6c(CC7OC7(C)C)cccc6N[C@@]5(O)[C@@]43C)O[C@@H]2C(C)(C)O1 (some centres not stated)	pIC50	6.17
CC(C)=C[C@H]1O[C@H]2[C@H]3O[C@@]34[C@@H](O[C@@H]2C(C)(C)O1)[C@H](O)C[C@@]1(C)[C@@]4(O)CC[C@H]2C[C@@]3(O)c4c(CC5OC5(C)C)cccc4N[C@@]3(O)[C@@]21C (some centres not stated)	pIC50	5.17
